- measured target: GST
- assay: SPOT array
- assay setup: median of control spots 978

{"columns": ["binder", "SPOT intensity"],
 "data": [
  ["NAGIRPKFILALNDE", 0],
  ["SGVRLPAPPPPPRRG", 0],
  ["QRKSLRRPTLSKPAV", 6],
  ["LRIKRKPVQTFFEFI", 1],
  ["ISPPASPPPEFDFSK", 0],
  ["RLSRLLLSLPPESFT", 0],
  ["GLRRARYKFPGQQKI", 3],
  ["RRRIAYPFYPFKKLG", 2],
  ["LLRRTIPKRPFYHVL", 1],
  ["EEEEEHPPLPARRKS", 0],
  ["NENKKLPPAPTVFGL", 0],
  ["LYKRKPILLPDPKPL", 2],
  ["TKIRRRPQQPLTDFT", 2],
  ["KNPRRQLQIPRQQPS", 4],
  ["PPIPNAPLSPAPAVP", 0]
]}

Hello, the source for this data is paper PMC2756588, in case you need it.
